tested on: Yap1 mRNA; assay: Dose-dependent inhibition of human Yap1 in A-431 cells (Example 7, 10,000 cells per well, RTS36584); assay type: cell-based; conditions: Table 60, A-431 cells 10,000 cells per well, free uptake
pIC50: −log10 of the molar value. Strand notation (5' to 3'): a small letter for the sugar, then the base; units joined by * are phosphorothioate-linked, units joined directly phosphodiester-linked; [ ] holds rarer units or linkages, { } end groups; capitals alone tell only the bases. k = constrained ethyl (cEt); [5mC] = 5-methylcytosine; d = 2'-deoxy (DNA)
Here the recorded pIC50 is given for each entry.

{"Substance": "958523 (kT*kT*k[5mC]*d[5mC]*dA*dA*dT*d[5mC]*dG*dA*dG*dA*d[5mC]*kT*kT*kA; antisense) [compound 958523]", "Assayed System": "Yap1 mRNA", "pIC50": 7.00}
{"Substance": "958558 (kT*kT*k[5mC]*dA*d[5mC]*dA*dA*d[5mC]*d[5mC]*dA*dA*d[5mC]*dT*kA*kT*kT; antisense) [compound 958558]", "Assayed System": "Yap1 mRNA", "pIC50": 6.30}
{"Substance": "715483 (k[5mC]*kT*k[5mC]*dT*dT*dT*dG*dG*dA*dA*dA*d[5mC]*d[5mC]*kA*kT*kT) [compound 715483]", "Assayed System": "Yap1 mRNA", "pIC50": 7.00}
{"Substance": "958793 (k[5mC]*k[5mC]*kG*d[5mC]*dA*dT*dT*dG*d[5mC]*d[5mC]*dT*dA*dA*kG*kA*kG; antisense) [compound 958793]", "Assayed System": "Yap1 mRNA", "pIC50": 6.70}
{"Substance": "958648 (kG*kA*kA*dT*dA*d[5mC]*dT*dG*dA*dG*dT*d[5mC]*dA*kG*kG*kA; antisense) [compound 958648]", "Assayed System": "Yap1 mRNA", "pIC50": 6.70}
{"Substance": "958753 (kT*kG*kT*dA*dT*dA*dT*dG*d[5mC]*d[5mC]*dG*dT*dT*k[5mC]*k[5mC]*k[5mC]; antisense) [compound 958753]", "Assayed System": "Yap1 mRNA", "pIC50": 7.00}
{"Substance": "958538 (kA*kT*k[5mC]*d[5mC]*dA*dG*dG*dG*dT*d[5mC]*dA*dA*dT*kT*kT*kT; antisense) [compound 958538]", "Assayed System": "Yap1 mRNA", "pIC50": 6.52}
{"Substance": "958593 (kG*kG*kT*d[5mC]*dA*dG*dT*dA*d[5mC]*dA*dG*dA*dG*kG*kG*k[5mC]; antisense) [compound 958593]", "Assayed System": "Yap1 mRNA", "pIC50": 7.00}
{"Substance": "958813 (kT*kT*kA*d[5mC]*dA*dG*dA*dG*dA*dG*dA*dT*dT*k[5mC]*kA*kT; antisense) [compound 958813]", "Assayed System": "Yap1 mRNA", "pIC50": 6.70}
{"Substance": "958588 (kG*kT*kG*dT*dA*d[5mC]*dT*dT*dA*dG*dG*dT*dG*kA*k[5mC]*kT; antisense) [compound 958588]", "Assayed System": "Yap1 mRNA", "pIC50": 6.70}
{"Substance": "958568 (kT*kA*kT*dG*dA*dG*dT*dG*dA*dT*d[5mC]*dA*dA*k[5mC]*k[5mC]*kT; antisense) [compound 958568]", "Assayed System": "Yap1 mRNA", "pIC50": 7.00}
{"Substance": "958578 (k[5mC]*kT*kT*dA*dA*dT*d[5mC]*dT*dG*dT*dG*dG*d[5mC]*kT*kA*k[5mC]; antisense) [compound 958578]", "Assayed System": "Yap1 mRNA", "pIC50": 7.00}
{"Substance": "958508 (kG*kA*kG*dA*dG*d[5mC]*dA*dG*dA*dT*dA*dA*dT*k[5mC]*kG*kA; antisense) [compound 958508]", "Assayed System": "Yap1 mRNA", "pIC50": 7.00}
